Catalogue of self-cleavage kobs at 160 uM GlcN6P values
B1: glmS ribozyme (parent)
chain: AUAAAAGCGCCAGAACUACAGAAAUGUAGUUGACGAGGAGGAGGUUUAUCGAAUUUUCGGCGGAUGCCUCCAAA

variants of: B1; assay: self-cleavage kobs at 160 uM GlcN6P; higher = faster cleavage; RNA array; details: with glucosamine-6-phosphate
Fewer inactive variants are shown than the library holds.
READOUT TYPE: self-cleavage kobs at 160 uM GlcN6P

VARIANT NOTATION	READOUT TYPE	ENDPOINT RESULT
G9A C10U G13A A52C	self-cleavage kobs at 160 uM GlcN6P	< 1e-05 s⁻¹
U30C A48C	self-cleavage kobs at 160 uM GlcN6P	< 1e-05 s⁻¹
A64C	self-cleavage kobs at 160 uM GlcN6P	1.42e-05 s⁻¹
A12C A15C	self-cleavage kobs at 160 uM GlcN6P	0.000151 s⁻¹
G13C A15U G51U C67U C68G	self-cleavage kobs at 160 uM GlcN6P	6.58e-05 s⁻¹
C50U U56C C68U C70U	self-cleavage kobs at 160 uM GlcN6P	< 1e-05 s⁻¹
U30C G35U G40U A42G U47C	self-cleavage kobs at 160 uM GlcN6P	< 1e-05 s⁻¹
U30C C70A	self-cleavage kobs at 160 uM GlcN6P	5.93e-05 s⁻¹
U56G G63U	self-cleavage kobs at 160 uM GlcN6P	< 1e-05 s⁻¹
A48C G66A	self-cleavage kobs at 160 uM GlcN6P	< 1e-05 s⁻¹
C34A A36G A39U A48C	self-cleavage kobs at 160 uM GlcN6P	< 1e-05 s⁻¹
A36U U54C	self-cleavage kobs at 160 uM GlcN6P	< 1e-05 s⁻¹
C8U G29U G41A G44C	self-cleavage kobs at 160 uM GlcN6P	< 1e-05 s⁻¹
C11A A15C C50G	self-cleavage kobs at 160 uM GlcN6P	0.000386 s⁻¹
A64U C68U	self-cleavage kobs at 160 uM GlcN6P	< 1e-05 s⁻¹
A6C C8U C67A C70U	self-cleavage kobs at 160 uM GlcN6P	< 1e-05 s⁻¹
G9U G43A G66U	self-cleavage kobs at 160 uM GlcN6P	< 1e-05 s⁻¹
G29C C61U C71U	self-cleavage kobs at 160 uM GlcN6P	< 1e-05 s⁻¹
G37A A42C U47G	self-cleavage kobs at 160 uM GlcN6P	< 1e-05 s⁻¹
G13A U55C	self-cleavage kobs at 160 uM GlcN6P	3.73e-05 s⁻¹
G44U C70A	self-cleavage kobs at 160 uM GlcN6P	< 1e-05 s⁻¹
C50G G59U	self-cleavage kobs at 160 uM GlcN6P	7.49e-05 s⁻¹
G41U G63U	self-cleavage kobs at 160 uM GlcN6P	< 1e-05 s⁻¹
A12U U31G	self-cleavage kobs at 160 uM GlcN6P	0.00142 s⁻¹
G35U U69C	self-cleavage kobs at 160 uM GlcN6P	< 1e-05 s⁻¹
U55A A64G C71A	self-cleavage kobs at 160 uM GlcN6P	0.000178 s⁻¹
G29C G40A	self-cleavage kobs at 160 uM GlcN6P	3.05e-05 s⁻¹
A33U C68A C70G	self-cleavage kobs at 160 uM GlcN6P	< 1e-05 s⁻¹
A14G C16U	self-cleavage kobs at 160 uM GlcN6P	0.0032 s⁻¹
A14G C16U C34A G41A A52C	self-cleavage kobs at 160 uM GlcN6P	< 1e-05 s⁻¹
G60A C61U G63A	self-cleavage kobs at 160 uM GlcN6P	< 1e-05 s⁻¹
C16G A52C	self-cleavage kobs at 160 uM GlcN6P	< 1e-05 s⁻¹
G29U U47G	self-cleavage kobs at 160 uM GlcN6P	0.00011 s⁻¹
G60C G63A	self-cleavage kobs at 160 uM GlcN6P	< 1e-05 s⁻¹
A12G C34A A36G	self-cleavage kobs at 160 uM GlcN6P	< 1e-05 s⁻¹
C34U U45A	self-cleavage kobs at 160 uM GlcN6P	< 1e-05 s⁻¹
U47C U54A	self-cleavage kobs at 160 uM GlcN6P	0.00038 s⁻¹
A39G C50G	self-cleavage kobs at 160 uM GlcN6P	0.000247 s⁻¹
A15G U31A G35U C67G	self-cleavage kobs at 160 uM GlcN6P	< 1e-05 s⁻¹
A12G G32C C71A	self-cleavage kobs at 160 uM GlcN6P	< 1e-05 s⁻¹
U45G C71A	self-cleavage kobs at 160 uM GlcN6P	8.6e-05 s⁻¹
A36C G62A	self-cleavage kobs at 160 uM GlcN6P	< 1e-05 s⁻¹
C8G G59A C70G	self-cleavage kobs at 160 uM GlcN6P	< 1e-05 s⁻¹
A42U G62U	self-cleavage kobs at 160 uM GlcN6P	< 1e-05 s⁻¹
G40C U56C	self-cleavage kobs at 160 uM GlcN6P	< 1e-05 s⁻¹
U47A A52G	self-cleavage kobs at 160 uM GlcN6P	8.42e-05 s⁻¹
